Reference source for all entries: patent US20180249717A1

tested on: Dermatophagoides pteronyssinus house dust mite proteins; assay: Dot-blot immunoassay for human-specific IgE reactivity (inhibition of allergenicity); format: binding; details: compounds, 500 μg each; allergic patient's serum IgE
Reported metric: Inhibition of allergenicity, Dermatophagoides pteronyssinus

INSERT INTO results (compound, system, reading) VALUES
  ('CC(C)=CCC/C(C)=C\CO', 'Dermatophagoides pteronyssinus house dust mite proteins', 42.3),
  ('C=CCc1cc(OC)c2c(c1)OCO2', 'Dermatophagoides pteronyssinus house dust mite proteins', 67.0),
  ('CC12CCC(CC1=O)C2(C)C (stereo not shown)', 'Dermatophagoides pteronyssinus house dust mite proteins', 77.9),
  ('CC(C)=CCC/C(C)=C\C=O', 'Dermatophagoides pteronyssinus house dust mite proteins', 56.5),
  ('Cc1ccc(C(C)C)c(O)c1', 'Dermatophagoides pteronyssinus house dust mite proteins', 67.9),
  ('CC(C)=CCCC(C)CCO (stereo not shown)', 'Dermatophagoides pteronyssinus house dust mite proteins', 49.2),
  ('C=C(C)[C@@H]1CC[C@@H](C)C[C@H]1O', 'Dermatophagoides pteronyssinus house dust mite proteins', 57.4);

====

tested on: Dermatophagoides farina house dust mite proteins; test: Dot-blot immunoassay for human-specific IgE reactivity (inhibition of allergenicity); format: binding; parameters: unit not given here; details: compounds, 500 μg each; allergic patient's serum IgE
Examples of compounds with documented Inhibition of allergenicity, Dermatophagoides farina follow.
Reported metric: Inhibition of allergenicity, Dermatophagoides farina

INSERT INTO results (compound, reading) VALUES
  ('CC=Cc1ccc(OC)cc1 [Anethole]', 62.3),
  ('CC12CCC(CC1=O)C2(C)C (stereo not drawn) [Camphor]', 78.2),
  ('C=C(C)[C@H](CO)CC=C(C)C [Lavandulol]', 74.4),
  ('Cc1ccc(C(C)C)c(O)c1 [Thymol]', 79.4),
  ('CC(C)=CCC/C(C)=C\CO [Nerol]', 67.9),
  ('C=C(C)[C@@H]1CC=C(CO)CC1 [Perilla alcohol]', 68.7);

====

test system: Dermatophagoides pteronyssinus house dust mite proteins; experiment: Dot-blot immunoassay for human-specific IgE reactivity (inhibition of allergenicity); type: binding; settings: compounds, 500 μg each; allergic patient's serum IgE
Reported metric: Inhibition of allergenicity, Dermatophagoides pteronyssinus

INSERT INTO measurements (compound, system, reading) VALUES
  ('C/C=C\c1cc(OC)c(OC)cc1OC', 'Dermatophagoides pteronyssinus house dust mite proteins', 68.5),
  ('CC(C)c1ccc(C=O)cc1', 'Dermatophagoides pteronyssinus house dust mite proteins', 76.1),
  ('CC1=CCC2C(C1)C2(C)C (centres unmarked)', 'Dermatophagoides pteronyssinus house dust mite proteins', 78.1),
  ('C=CC(C)(O)CCC=C(C)CCC=C(C)C (centres unmarked)', 'Dermatophagoides pteronyssinus house dust mite proteins', 67.7),
  ('C=C(C)C1CC=C(C=O)CC1 (centres unmarked)', 'Dermatophagoides pteronyssinus house dust mite proteins', 76.4),
  ('C=C(C)[C@@H]1CC=C(CO)CC1', 'Dermatophagoides pteronyssinus house dust mite proteins', 56.5),
  ('CC(C)c1ccccc1', 'Dermatophagoides pteronyssinus house dust mite proteins', 47.8),
  ('C=CCN=C=S [Allyl isothiocyanate]', 'Dermatophagoides pteronyssinus house dust mite proteins', 73.0),
  ('CC=Cc1ccc(OC)cc1', 'Dermatophagoides pteronyssinus house dust mite proteins', 52.1),
  ('CC(C)=CCC/C(C)=C/C=O', 'Dermatophagoides pteronyssinus house dust mite proteins', 68.1),
  ('C=C(C)[C@H](CO)CC=C(C)C', 'Dermatophagoides pteronyssinus house dust mite proteins', 62.7);
